Subject Of Test: T1, human serum albumin (human, UniProt P02768 25-609)
T1 construct: Immobilised on SPR chips; also added in solution to the cell assays; also called HSA; humanSA
Experiment Summary: SPR Biacore 3000, HSA on chip, pH 7.4
Assay Readout: koff

Binder	Assay Readout	Value Reported
TA-Fc-ABDEG-2H11 (2H11 parental fused at the C-terminus of Fc-ABDEG) (Fc fusion) DKTHTCPPCPAPELLGGPSVFLFPPKPKDTLYITREPEVTCVVVDVSHEDPEVKFNWYVDGVEVHNAKTKPREEQYNSTYRVVSVLTVLHQDWLNGKEYKCKVSNKALPAPIEKTISKAKGQPREPQVYTLPPSRDELTKNQVSLTCLVKGFYPSDIAVEWESNGQPENNYKTTPPVLDSDGSFFLYSKLTVDKSRWQQGNVFSCSVMHEALKFHYTQKSLSLSPGGGGGSGGGGSGGGGSGGGGSELQVVESGGGLVQAGGSLRLSCAASGRTFRSNTMGWFRQAPGKEREFVAAITWSGGTTYYADSVKGRFAISGDNAKNTVYLQMNSLKPEDTAVYYCAAEGPKWEPWNGIYHPADFGSWGQGTQVTVSS	koff	0.00072 s⁻¹
